# ASSAY_SYSTEM: UniProt:P21980
# Sequence (P21980 whole entry): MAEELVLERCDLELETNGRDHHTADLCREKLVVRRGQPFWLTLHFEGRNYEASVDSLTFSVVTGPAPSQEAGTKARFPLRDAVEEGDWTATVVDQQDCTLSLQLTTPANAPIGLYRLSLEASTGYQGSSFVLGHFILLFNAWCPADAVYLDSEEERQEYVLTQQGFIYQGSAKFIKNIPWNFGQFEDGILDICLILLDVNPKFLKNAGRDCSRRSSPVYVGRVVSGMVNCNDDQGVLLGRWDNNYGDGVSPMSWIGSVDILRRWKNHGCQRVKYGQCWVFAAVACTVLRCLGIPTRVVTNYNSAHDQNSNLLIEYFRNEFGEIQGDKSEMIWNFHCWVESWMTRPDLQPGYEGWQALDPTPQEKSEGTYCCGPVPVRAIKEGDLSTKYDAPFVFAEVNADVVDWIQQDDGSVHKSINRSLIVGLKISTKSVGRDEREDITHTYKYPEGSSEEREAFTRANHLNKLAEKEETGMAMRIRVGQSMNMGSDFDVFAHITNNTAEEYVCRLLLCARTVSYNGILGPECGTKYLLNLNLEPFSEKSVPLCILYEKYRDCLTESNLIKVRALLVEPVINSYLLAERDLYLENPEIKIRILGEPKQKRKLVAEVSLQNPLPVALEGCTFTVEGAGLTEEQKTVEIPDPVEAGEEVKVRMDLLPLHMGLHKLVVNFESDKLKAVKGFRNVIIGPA
# PROTOCOL_SUMMARY: Transglutaminase (TG) Inhibitor Assay
# Format: biochemical
# DETAILS: fluorescence of dansyl cadaverine cross-linked into N,N-dimethylated casein; 8 point titration
MEASURE_NAME: IC50

COC(=O)N[C@@H](CC/C=C/C(=O)N(C)C)C(=O)Nc1cncn(Cc2nc3c(CCC(F)(F)F)cc(F)cc3n2C(=O)OC(C)(C)C)c1=O
< 500 nM

Now take the following molecule into account.
Entry COC(=O)N[C@@H](CC/C=C/C(=O)N(C)C)C(=O)Nc1cccn(Cc2nc3c(N(C)C)nc(C)nc3[nH]2)c1=O ; IC50 = 500 to 5000 nM
